biological target: UniProt:P08684; experiment: in vitro; settings: pooled human liver microsomes, probe M2 20 µM (formation of M1)
Sequence (P08684 2-503): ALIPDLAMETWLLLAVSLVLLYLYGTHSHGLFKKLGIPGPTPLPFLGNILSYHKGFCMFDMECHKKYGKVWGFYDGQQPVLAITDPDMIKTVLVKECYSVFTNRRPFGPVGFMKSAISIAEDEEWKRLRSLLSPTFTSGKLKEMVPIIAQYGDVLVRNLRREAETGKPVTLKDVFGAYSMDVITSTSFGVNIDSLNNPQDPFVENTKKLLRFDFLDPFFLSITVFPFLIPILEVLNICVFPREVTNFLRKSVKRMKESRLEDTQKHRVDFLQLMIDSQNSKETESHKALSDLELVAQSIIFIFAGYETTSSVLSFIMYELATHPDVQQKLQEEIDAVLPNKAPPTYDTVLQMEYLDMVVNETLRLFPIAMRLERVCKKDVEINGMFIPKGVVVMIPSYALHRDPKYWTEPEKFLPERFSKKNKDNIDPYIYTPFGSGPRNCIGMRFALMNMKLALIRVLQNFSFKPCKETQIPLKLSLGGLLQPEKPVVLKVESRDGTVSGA
experimental_readout: IC50
Please state the number and follow it with the unit.

## Input Read the entry CC(=O)N1CCN(c2ccc(OCC3COC(Cn4ccnc4)(c4ccc(Cl)cc4Cl)O3)cc2)CC1 (stereo not shown) and write its reported IC50.
## Output 9.8 µM

====

Task for the reader: assign each of the following compounds its reported IC50 at 20 min.
system: reductase-mediated hydrogenation of BYZX (formation of M2); assay: in vitro; type: in vitro ADME, human; conditions: human

## Input Read the entry O=c1oc2ccccc2c(O)c1Cc1c(O)c2ccccc2oc1=O [dicoumarol] and write its reported IC50 at 20 min.
## Output 1.6 µM

## Input Read the entry COc1ccc2c(c1)c(CC(=O)O)c(C)n2C(=O)c1ccc(Cl)cc1 [indomethacin] and write its reported IC50 at 20 min.
## Output 18.8 µM
